Tested on: UO-31
protocol_description: NCI tumour cell line growth inhibition, 48 h
Activity calls are given as the source filed them. Cut-off read from the data, not from the text of the source: active = GI50 up to about 1.1 µM and inactive = higher.
Response enum: yes (1) for active, no (0) for inactive

# molecule, label
rows = [
    ("CSC1=N/C(=C\\c2ccco2)C(=O)N1CN1CCCCC1", "no (0)"),
    ("COc1cccc2c1OC1Sc3ccccc3-c3nn(-c4ccccc4)c-2c31 (stereo not drawn)", "no (0)"),
    ("Cc1ccc(NC(=O)CC2SC(Nc3ccc(Cl)cc3)=NC2=O)cc1C (stereo not drawn)", "no (0)"),
    ("C[N+](C)(C)CC(=O)N/N=C(/Cc1cc(=O)oc2cc(O)ccc12)C(=O)Nc1ccc(Cl)cc1", "no (0)"),
    ("COc1ccc(N2C(=O)CC(C3CC(C(C)(C)C)CCC3=O)C2=O)cc1 (stereo not drawn)", "no (0)"),
]

Check the results log: what was the call for COC(=O)C/N=C1\NC(=S)N(Cc2ccc(OC)cc2)C12CCCC2 ?
no (0)

Check the results log: what was the call for Oc1ccc(-c2cc(-c3c(O)cc(O)cc3O)on2)cc1 ?
no (0)

Check the results log: what was the call for Sc1nnc(SCc2ccccc2Cl)c2nc[nH]c12 ?
no (0)

Check the results log: what was the call for Cn1cc[n+](-c2cc(=O)n(C)c(=O)[n-]2)c1 ?
no (0)

Check the results log: what was the call for COc1cc(C2C(C(=O)O)=C(COC(C)=O)Oc3cc4c(cc32)OCO4)cc(OC)c1OC (stereo not drawn) ?
no (0)

Check the results log: what was the call for N#Cc1cccc(N2C(=O)c3ccc(C(=O)c4ccc5c(c4)C(=O)N(c4cccc(C#N)c4)C5=O)cc3C2=O)c1 ?
no (0)

Check the results log: what was the call for N#C/C(N)=C(C#N)/N=C/NCc1ccccc1 ?
no (0)

Check the results log: what was the call for O=C(NC(=O)c1ccccc1[N+](=O)[O-])Nc1ccc(Oc2ncc(Br)cn2)c(Cl)c1 ?
yes (1)

Check the results log: what was the call for N=C(N)N/N=C/c1c(Cl)nc2sccn12 ?
no (0)

Check the results log: what was the call for CSc1ncnc2c1cnn2CCCCO ?
no (0)

Check the results log: what was the call for COc1ccccc1C1(c2c(OC)c(=O)c2=O)SCCCS1 ?
no (0)

Check the results log: what was the call for O=C(NNC(=O)c1cc(/C=C/c2cccc([N+](=O)[O-])c2)nc(S)n1)Nc1ccc(Cl)cc1 ?
no (0)

Check the results log: what was the call for CCOC(=O)c1cc(/C=C/C(C)=C/C(=O)OC)n(C)c1C ?
no (0)

Check the results log: what was the call for CC12CC[C@H](O)C(C)(C)[C@H]1CC[C@](C)(O)C2COc1ccc2ccc(=O)oc2c1 (stereo partly drawn) ?
no (0)

Check the results log: what was the call for C=C(Br)C(C)(Br)CCC(Br)C(C)(C)Cl (stereo not drawn) ?
no (0)

Check the results log: what was the call for COc1cc2c(c(OC)c1)C(C)=NC(C)C2 (stereo not drawn) ?
no (0)

Check the results log: what was the call for NC1CC(=O)c2cc(Br)sc21 (stereo not drawn) ?
no (0)

Check the results log: what was the call for O=C1Nc2ccccc2/C1=C\c1c(Cl)[nH]c2ccccc12 ?
no (0)

----------
Tested on: SK-MEL-2
protocol_description: NCI tumour cell line growth inhibition, 48 h
Active and inactive are the calls of the source. Rule as the data show it: active = GI50 up to about 1.1 µM and inactive = higher.
measurement_label: GI50

# compound, GI50
measured = [
    ("CN1N=C2c3ccccc3CC[C@H]2C1c1ccccc1 (stereo not given in full)", "24.5 µM (inactive)"),
    ("C=CC(CCc1ccc(C(=O)OCC)cc1)c1c(N)nc(N)[nH]c1=O (stereo not given)", "> 100 µM (inactive)"),
]

// GI50 lookup, compound = CCOC(=O)Cn1c(=O)n(C)c(=O)c2[nH]cnc21 , result: > 100 µM (inactive)

// GI50 lookup, compound = COC(=O)C(Cc1nc2ccc(Cl)cc2nc1O)/C(=N/NC(N)=O)C(=O)Nc1ccc(Cl)cc1 (stereo not given) , result: > 100 µM (inactive)

// GI50 lookup, compound = CN1c2ccccc2N(C)C2C1N(C)c1ccccc1N2C (stereo not given) , result: 9.59 µM (inactive)

// GI50 lookup, compound = Nc1ccc2ncc(Nc3ccc(Cl)c(Cl)c3)nc2c1 , result: 26.4 µM (inactive)

// GI50 lookup, compound = CCC(Nc1ncnc2nc[nH]c12)C(=O)O (stereo not given) , result: > 100 µM (inactive)

// GI50 lookup, compound = COc1ccc(-c2c(/C=N/OCC(=O)O)c3sc4ccccc4n3c2/C=N/OCC(=O)O)cc1 , result: > 50 µM (inactive)

// GI50 lookup, compound = c1c2c(cc(-n3nnc4c3CCCCCC4)c1-n1nnc3c1CCCCCC3)CCCCCC2 , result: 13.1 µM (inactive)

// GI50 lookup, compound = COC(=O)[C@H](Cc1ccccc1)NC(=O)N1CCCN(C(=O)N[C@@H](Cc2ccccc2)C(=O)OC)CCCN(C(=O)N[C@@H](Cc2ccccc2)C(=O)OC)CCC1 , result: 15 µM (inactive)

// GI50 lookup, compound = O=C(O)C1(C(O)c2ccccc2)SCCCS1 (stereo not given) , result: > 10 µM (inactive)

// GI50 lookup, compound = O=C1Nc2ccccc2C1(O)Cc1ccccn1 (stereo not given) , result: > 100 µM (inactive)

// GI50 lookup, compound = Cn1c(-c2ccc[se]2)ccc1-c1ccc(CO)[se]1 , result: 34.7 µM (inactive)

// GI50 lookup, compound = CC1OC(n2cc(I)c(=O)[nH]c2=O)C=CC1=O (stereo not given) , result: 17.9 µM (inactive)

// GI50 lookup, compound = CN(C)CC1CCCC(CN2CCCCC2)C1=O (stereo not given) , result: 15.7 µM (inactive)

// GI50 lookup, compound = COc1cc2c(cc1O)[C@H](C)C(c1ccc(Cl)cc1)O2 (stereo not given in full) , result: 21.3 µM (inactive)

// GI50 lookup, compound = CCOC(=O)c1nc2cc(C(F)(F)F)ccc2nc1Nc1ccc(Cl)c(Cl)c1 , result: > 100 µM (inactive)

// GI50 lookup, compound = O=C(O)CCC(C(=O)O)N1C(=O)C2C3CCC(C3)C2C1=O (stereo not given) , result: > 100 µM (inactive)

// GI50 lookup, compound = COc1ccc2c3c1OC1C(F)C=CC4(O)C(C2)NCCC314 (stereo not given) , result: 2.38 µM (inactive)

// GI50 lookup, compound = CCc1cccc(C)c1N1C(=O)C(=O)C(c2nc3ccccc3o2)C(=O)C1=O , result: > 100 µM (inactive)

// GI50 lookup, compound = Cc1cc(C)c(S(=O)(=O)N(CCCCN)OCCCN)c(C)c1 , result: 15.1 µM (inactive)

// GI50 lookup, compound = Cc1cc(=O)n2c3c(c4c(cc13)c(CO)cc(=O)n4C)OC2 , result: 7.46 µM (inactive)

// GI50 lookup, compound = CC(=O)c1cc(CC2Cc3cc4c(cc3C2=O)CCC4)cc2c1CCC2 (stereo not given) , result: 71.1 µM (inactive)

// GI50 lookup, compound = COC12COC(=O)C1C(c1ccc3c(c1)OCO3)c1cc3c(cc1O2)OCO3 (stereo not given) , result: 17.6 µM (inactive)

// data source = ChEMBL document CHEMBL1201862
